target: Prostaglandin G/H synthase 1 (Rattus norvegicus, UniProt Q63921); assay type: functional; also: assay procedure not described here
Sequence (Q63921 whole entry): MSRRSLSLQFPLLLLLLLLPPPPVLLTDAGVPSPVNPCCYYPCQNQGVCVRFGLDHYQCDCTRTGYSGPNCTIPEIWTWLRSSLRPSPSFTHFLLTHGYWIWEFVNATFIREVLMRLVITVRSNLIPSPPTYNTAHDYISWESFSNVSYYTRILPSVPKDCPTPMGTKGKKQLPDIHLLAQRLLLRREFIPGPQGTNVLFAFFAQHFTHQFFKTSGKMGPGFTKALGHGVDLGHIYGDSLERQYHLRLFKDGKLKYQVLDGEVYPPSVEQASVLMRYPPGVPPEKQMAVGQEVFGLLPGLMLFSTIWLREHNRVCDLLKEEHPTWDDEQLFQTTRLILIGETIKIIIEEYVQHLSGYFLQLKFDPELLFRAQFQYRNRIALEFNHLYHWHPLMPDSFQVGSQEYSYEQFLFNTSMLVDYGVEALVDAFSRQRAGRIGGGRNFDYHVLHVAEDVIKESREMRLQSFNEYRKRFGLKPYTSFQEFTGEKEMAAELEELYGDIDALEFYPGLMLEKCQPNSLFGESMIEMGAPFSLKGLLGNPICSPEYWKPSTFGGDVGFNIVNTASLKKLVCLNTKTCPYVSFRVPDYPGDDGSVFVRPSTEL
The following compounds are shown together with reported AC50 values.

The following compounds have reported results that may help.
Cc1cn([C@H]2C[C@H](N=[N+]=[N-])[C@@H](CO)O2)c(=O)[nH]c1=O [ZIDOVUDINE]; > 30 µM
C[C@]1(O)CC[C@H]2[C@@H]3CCC4=CC(=O)CC[C@]4(C)[C@@]3(F)[C@@H](O)C[C@@]21C [FLUOXYMESTERONE]; > 10 µM
N[C@@H]1[C@H]2CN(c3nc4c(cc3F)c(=O)c(C(=O)O)cn4-c3ccc(F)cc3F)C[C@@H]12 [TROVAFLOXACIN]; > 30 µM

// below: AC50 requested for another compound
Problem: Requested field: AC50. Item: COc1ccc(CCN(C)CCCC(C#N)(c2cc(OC)c(OC)c(OC)c2)C(C)C)cc1OC (centres undefined) [GALLOPAMIL]
Solution: > 30 µM
